target: T1, Human CD137 displayed on yeast cells (human, UniProt Q07011 24-186, limits assumed); test: flow cytometry on yeast cells displaying human CD137; column headed EC50 / KD (nM)
T1 construct: Yeast cells displaying human CD137, stained with serial dilutions of antibody; also called human CD137 on the cell surface
ENDPOINT LABEL: EC50 (nM)
Lab book: enter the figure in nM, no units written.

Completed entries (count: 3):
BINDER: TY22591 (antibody, V domains shown, Full IgG4 expressed in mammalian cells, uncleaved) VH: EVQLVESGGGLVQPGGSLRLSCAASGFSLSTGGVGVGWIRQAPGKGLEWLALIDWADDKYYSPSLKSRLTISRDNSKNTLYLQLNSLRAEDTAVYYCARGGSDTVIGDWFAYWGQGTLVTVSS VL: EVGSYSSTHAHCHHSPANCISSGRSAGGGGSPLGLAGSGGSDIQLTQSPSSLSASVGDRVTITCRASQSIGSYLAWYQQKPGKAPKLLIYDASNLETGVPSRFSGSGSGTDFTLTISSLQPEDFATYYCQQGYYLWTFGQGTKVEIK
EC50, nM: 10.8
//
BINDER: TY22599 (antibody, V domains shown, Full IgG4 expressed in mammalian cells, uncleaved) VH: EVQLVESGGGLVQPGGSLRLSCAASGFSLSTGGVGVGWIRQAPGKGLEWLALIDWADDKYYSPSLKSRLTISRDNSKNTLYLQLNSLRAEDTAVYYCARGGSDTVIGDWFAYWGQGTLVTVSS VL: EVGSYTDNYDYCPRLRRKCYHSGRSAGGGGSPLGLAGSGGSDIQLTQSPSSLSASVGDRVTITCRASQSIGSYLAWYQQKPGKAPKLLIYDASNLETGVPSRFSGSGSGTDFTLTISSLQPEDFATYYCQQGYYLWTFGQGTKVEIK
EC50, nM: 98.1
//
BINDER: TY22598 (antibody, V domains shown, Full IgG4 expressed in mammalian cells, uncleaved) VH: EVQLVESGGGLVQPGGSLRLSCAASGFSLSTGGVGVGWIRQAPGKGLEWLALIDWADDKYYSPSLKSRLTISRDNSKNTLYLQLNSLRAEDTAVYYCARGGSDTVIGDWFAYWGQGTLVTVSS VL: EVGSYSNNFASCLWRHRSCADSGRSAGGGGSPLGLAGSGGSDIQLTQSPSSLSASVGDRVTITCRASQSIGSYLAWYQQKPGKAPKLLIYDASNLETGVPSRFSGSGSGTDFTLTISSLQPEDFATYYCQQGYYLWTFGQGTKVEIK
EC50, nM: 8.61

// query Indicate the recorded EC50 value for this binder: TY22596 (antibody, V domains shown, Full IgG4 expressed in mammalian cells, uncleaved) VH: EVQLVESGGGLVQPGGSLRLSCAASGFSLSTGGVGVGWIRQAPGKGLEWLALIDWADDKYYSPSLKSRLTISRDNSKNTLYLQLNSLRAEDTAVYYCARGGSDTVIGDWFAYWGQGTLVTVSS VL: EVGSYYHDYDDCRVLPRRCFNSGRSAGGGGSPLGLAGSGGSDIQLTQSPSSLSASVGDRVTITCRASQSIGSYLAWYQQKPGKAPKLLIYDASNLETGVPSRFSGSGSGTDFTLTISSLQPEDFATYYCQQGYYLWTFGQGTKVEIK
// result 5.86
